Target under test: human GLP-1R (Homo sapiens, UniProt P43220)
Construct: host or cells: HEK293
Sequence (P43220 24-463): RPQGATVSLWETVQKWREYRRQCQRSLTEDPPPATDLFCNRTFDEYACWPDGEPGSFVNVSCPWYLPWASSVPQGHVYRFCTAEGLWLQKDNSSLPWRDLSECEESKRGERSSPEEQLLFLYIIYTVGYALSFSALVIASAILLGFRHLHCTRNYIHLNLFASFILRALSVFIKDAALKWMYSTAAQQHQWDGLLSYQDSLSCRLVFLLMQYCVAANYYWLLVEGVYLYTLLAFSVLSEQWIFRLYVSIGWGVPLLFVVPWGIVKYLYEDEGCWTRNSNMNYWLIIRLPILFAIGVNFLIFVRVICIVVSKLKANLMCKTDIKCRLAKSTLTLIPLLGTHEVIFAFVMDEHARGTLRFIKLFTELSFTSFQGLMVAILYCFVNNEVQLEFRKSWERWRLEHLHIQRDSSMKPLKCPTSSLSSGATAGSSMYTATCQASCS
Protocol notes: GLP-1R cAMP assay (Example B1a, HTRF, 30 min at room temperature)
Assay type: cell-based
Run parameters: cAMP accumulation in HEK293 expressing human GLP-1R, no BETP, 30 min room temperature (Method B1a, compounds ID 1-609), Table 1; read-out: EC50
Reported metric: pEC50
The scale used: pEC50 is minus the common logarithm of the concentration in molar units.

Compound	pEC50
CNC(=O)[C@]1(n2c(C(=O)N3[C@@H]4CC[C@H]3c3c(nn(-c5cc(C)c(F)c(C)c5)c3-n3ccn(-c5ccc6c(cnn6C)c5F)c3=O)C4)cc3cc([C@H]4CCOC(C)(C)C4)ccc32)C[C@@H]1C [Compound 244]	6.41
Cc1cc(-n2nc3c(c2-n2ccn(-c4ccc5c(cnn5C)c4F)c2=O)[C@@H]2CC[C@H](C3)N2C(=O)c2cc3cc([C@H]4CCOC(C)(C)C4)ccc3n2C2(c3nnn[nH]3)CC2)cc(C)c1F [Compound 118]	6.34

# evaluate next
### Prompt Returns the measured pEC50 for the input compound. Input: Cc1cc(-n2nc3c(c2-n2ccn(-c4ccc5c(cnn5C)c4F)c2=O)[C@@H]2CC[C@H](C3)N2C(=O)c2cc3sc(C4CCOC(C)(C)C4)nc3n2[C@@]2(c3noc(=O)[nH]3)C[C@@H]2C)cc(C)c1F (stereo partly shown) [Compound 245]
### Response 5.29
